Where do the numbers come from? From ChEMBL document CHEMBL2062364.

biological target: Phosphatidylinositol 4,5-bisphosphate 3-kinase catalytic subunit alpha isoform (Homo sapiens); assay: Inhibition of N-terminus poly-His tagged human PI3Kalpha expressed in baculovirus infected insect sf9 cells coexpressing p85alpha using PI(4,5)P2 as substrate preincubated with compound for 15 mins measured after 10 mins by HTRF assay
pIC50: −log10 of the molar value.
measurementName: pIC50

See these solved cases before continuing.
{"columns": ["smilesStructure", "measurementName", "numericValue"],
 "data": [
  ["O=c1cc(N2CCOCC2)nc(Cc2nc3c(-c4ccccn4)cccc3o2)[nH]1", "pIC50", 5.48],
  ["O=c1cc(N2CCOCC2)nc(Cc2nc3cc(Br)ccc3[nH]2)[nH]1", "pIC50", 5.26],
  ["Cc1ccc2[nH]c(Cc3nc(N4CCOCC4)cc(=O)[nH]3)nc2c1", "pIC50", 5.01],
  ["O=c1cc(N2CCOCC2)nc(Cc2nc3c(-c4ccccc4)cccc3o2)[nH]1", "pIC50", 5.11],
  ["Cc1ccc2nc(Cc3nc(N4CCOCC4)cc(=O)[nH]3)oc2c1", "pIC50", 5.01],
  ["O=c1cc(N2CCOCC2)nc(Cc2nc3c(-c4ccccc4)cccc3[nH]2)[nH]1", "pIC50", 5.26]
]}

(a) O=c1cc(N2CCOCC2)nc(Cc2nc3c(-c4cccs4)cccc3o2)[nH]1
(b) O=C(Cc1nc(N2CCOCC2)cc(=O)[nH]1)Nc1ccccc1
(c) Cn1c(Cc2nc(N3CCOCC3)cc(=O)[nH]2)nc2ccc(-c3ccccc3)cc21
(d) CCn1c(Cc2nc(N3CCOCC3)cc(=O)[nH]2)nc2ccccc21
(e) Cn1c(Cc2nc(N3CCOCC3)cc(=O)[nH]2)nc2c(-c3ccccc3)cccc21
Request: Kindly order the items shown according to pIC50, from the highest value down. # format: label list in the order the request specifies
Response: e, d, b, a, c
